Data provenance: the nanobody polyreactivity screen of Harvey et al. (2022)

assay.overview: yeast display, Sf9 membrane polyspecificity reagent, FACS + sequencing; frameworks hold sequencing errors
assay.readout: polyreactivity (PSR sort gate)

Sample QVQIVESGGGLVQAGGSLRLSCAASGSTFFRYAMGWYRQAPGKERELVAAISYSGDSTYYADSVKGRFTISRDNAKNTVYLQMNSLKPEDTAVFYCNAVYFRYRYNYWGQGTQVTVSS — what was its polyreactivity (PSR sort gate)?
high polyreactivity

Please give the measured polyreactivity (PSR sort gate) for this sequence: QVQLVESGGGLVQAGGSLRLSCAASGSTFFPYAMGWYRQAPGKVRELVAAIRWSGGRTYYADSVKGRFTISRDNPKNTVFLQMNSLKPEDTAVYYCNGYSVYVRGEYWGQGTQVTVSS
high polyreactivity

* * *

assay.overview: yeast display, Sf9 membrane polyspecificity reagent, FACS + sequencing; frameworks hold sequencing errors
assay.readout: polyreactivity (PSR sort gate)

Could you share which polyreactivity (PSR sort gate) value was measured for QVQLVESGGGLVQAGGSLRLSCAASGFTFPRYAMGWYRQAPGKERELVAAITSGDRTYYADSVKGRFTISRDNAKNTVYLQMNSLKPEDTAVYYCAKSSPRKSSQKHSFYEYNYWGQGTQVTVSS ?
high polyreactivity

Which polyreactivity (PSR sort gate) reading was recorded for the sequence QVQLVESGGGLVQAGGSLRLSCAASGSIFLYNTMGWYRQAPGKQRELVAALTYSGGSTYYADSVKGRFTISRDHAKNTVYLQMNSLKPEDTAVNYGNARHYSAYYSWGQGTLVTVSS ?
high polyreactivity

* * *

assay.overview: yeast display, Sf9 membrane polyspecificity reagent, FACS + sequencing; frameworks hold sequencing errors
assay.readout: polyreactivity (PSR sort gate)

Look over these answered cases.
Recorded polyreactivity (PSR sort gate) for QVQLVESGGGLVQAGGSLRLSCAASGSISRYAMGWSRQAPGKERELVAAITRSGGSTHYADSVKGRFTISRDNAKNTVYLQMNSLKPEDTAVYYCATRYYRGVIRYPYDSWGQGTQVTVSS , please?
high polyreactivity

Tell me the measured polyreactivity (PSR sort gate) of QVQLVESGGGLVQAGGSLRLSCAASGSIFGRNAMGGYRQAPGSERELVARISSRGGSTYYADSVKGRFTISRDNAKNTVDLQMNSLKPEDTAVYYCNRDRTSQTNDYWGQGTQVTVSS , please.
high polyreactivity

Which value of polyreactivity (PSR sort gate) has been reported for QVQLVESGGGLVQAGGSLRLSCAASGSIFWVNAMGWYRQAPGQVSELVAAINYSDGSTSYADSVKGRFTISRDNAKNTVYLQMNSLKPEDTAVYYCNAESFELMYYWGQGTQVTVSS in the records?
low polyreactivity

Fill blank: measured polyreactivity (PSR sort gate) of the sequence QVQLVESGGGLVQAGGSLRLSCAASGRTFTLYAMGWSRPAPGKERELVAAIRWSGSSTYYADSVKGRFTISRDNSKNTVYLQMNSLKPEDTAVYYCAARAGRYDRYGYWGQGTQVTVSS is ____.
high polyreactivity

Return reported polyreactivity (PSR sort gate); argument: QVQLVESGGGLVQAGGSLRLSCAASGSIFLKYAMGWYRQAPGKERELVATISRGGITYYADSVKGRFTISRDNAKNTVYLQMNSLKPEDTAVYYCATTGGRQYGYWGQGTQVTVSS
high polyreactivity

Given the entry QDQLVESGGGLVQAGGSLRLSCAASGFTFTRYAMGWYRQAPGKERELVAAITRRSGRTYYADSVKGRFTISRDNAKNTVYLQMNSLKPEDTAVYYCNAVRTTPSGSLPLAYDYWGQGTQVTVSS , report its measured polyreactivity (PSR sort gate).
high polyreactivity

---
Given QVQLVESGGGLVQAGGSLRLSCAASGYIFPFYAMGWYRQAPGKQRELVAAITESGGSTYYADSVKGRFTISRDNAKNNVYLQMNSLKPEDTAVYYCAKEVVKHPRGKLDYWGQGTQVTLSS , state its recorded polyreactivity (PSR sort gate).
low polyreactivity

Would you mind telling me what polyreactivity (PSR sort gate) value was observed for QVQLVESGGGLVQAGGSLRLSCAASGFTFSKYAMGLYRQAPGKERELVAAITRRGSSTYYADSVKGRFTLSRDNAKNTVYLQMNSLKPEDTAVYYCNAPRPNGYLGEDNYWGQGTKVTVSS ?
high polyreactivity

What polyreactivity (PSR sort gate) value was documented for this sequence, QVQLVDSGGGLVQAGGTLRLSCAASGRTIRYNAMAWYRQAPGKERELVAAITGSGGSTYYADSVKGRFTISRDNAKNTVYLQMNSLKPEDTAVYYCARDGYLVYYYDWSYPYDSWGQGTQVTVSS ?
low polyreactivity

Name the recorded polyreactivity (PSR sort gate) for QVQLVESGGGLFQARGSLRLSCAASGRTFWYYTMGWYRPAPGKERELVASITYRGGSTYYADSVKGRFTISRDNAKITVYLQMNSLKREDTALYYCYARYKRYSYDYWGQGTQVTVSS .
high polyreactivity

# input sequence: QVQLVESGGGLVQAGGSLRFSCAYSGRTFFGYAMGWYRQAPGKERELVAAITSAGGRTYYADSVKGRYTISRDNAKNTVYLQMNSLKPEYTAVYYCAATRWYYGLSAFDSWGQGTQVTVSS ; wanted: its polyreactivity (PSR sort gate)
high polyreactivity
